For each of the compounds below, state its GI50.
Express it in µM; write the number only.

q: Specify the recorded GI50 for CC(C)(OCc1ccccc1)c1ccccc1P(c1ccccc1)c1ccccc1 , system: HCT-15.
a: 36.4

q: Check HCT-15 data and give GI50 for Brc1ccc(/N=N/N2CCCC2)cc1 .
a: 50.7

q: Find the measured GI50 of O=[N+]([O-])c1ccc(CSc2nn(Cc3ccc([N+](=O)[O-])cc3)cc3ncnc2-3)cc1 with HCT-15 as test system.
a: 43.1

q: Recall the reported GI50 of Nc1ncnc2c1sc(=S)n2-c1ccccc1 when tested on HCT-15.
a: 96.8

q: State recorded GI50 with HCT-15, entry CC1(C)CCCCCCCCCC(C)(CCCCCCCCCCCCO)C1=O (configuration not stated) , no comment.
a: 21.7

---

- Tested on: NCI-H460
- measurement_description: NCI tumour cell line growth inhibition, 48 h
Active and inactive are the calls of the source. No stated cut-off is given here; in the data, active = GI50 up to about 1.1 µM and inactive = higher.
measured_parameter: GI50

q: State recorded GI50 with NCI-H460, entry CCOC(=O)CNC1=Nc2ccccc2C(=O)N2CSCC12 (stereo unspecified) , no comment.
a: > 100 µM (inactive)

q: Report GI50 on NCI-H460 for this entry: O=C(NCCCN(CCCCN(CCCNC(=O)C(F)(F)F)CCCc1ccccc1)CCCc1ccccc1)C(F)(F)F
a: 1.87 µM (inactive)

q: Under NCI-H460, report GI50 for O=[N+]([O-])c1cc2oc(COc3ccccc3)nc2cc1Cl
a: 21.3 µM (inactive)

q: Write down the reported GI50 (system: NCI-H460) of OC(c1cc2ccccc2o1)c1cc2ccccc2s1 (stereo unspecified)
a: > 10 µM (inactive)

q: Lab note: record GI50 of CC1(C)OC(=O)C(C)(C)C(=O)O1 tested on NCI-H460.
a: > 100 µM (inactive)

q: Provide NCI-H460 GI50 reading for CCCCCCC(O)CC[C@H]1CCC[C@@H](C)N1 (stereo partly specified) .
a: > 100 µM (inactive)

---

- Test system: NCI-H226
- measurement_description: NCI tumour cell line growth inhibition, 48 h
The source made the active and inactive calls. No stated cut-off is given here; in the data, active = GI50 up to about 1.1 µM and inactive = higher.
measured_parameter: GI50

q: Identify measured GI50 obtained with NCI-H226 for CN(CCO)CCCC1COc2ccccc2O1 (configuration not stated) .
a: > 100 µM (inactive)

q: Quote GI50 with test system NCI-H226 for Cc1ccc2c(c1)C(=O)/C(=C\c1ccccc1)CCS2(=O)=O
a: 15.7 µM (inactive)

q: System NCI-H226. Read-out GI50. Item O=C(O)c1nc(-c2ccccc2)[nH]c1C(=O)O . Report value.
a: 14.8 µM (inactive)

q: Report GI50 from NCI-H226 testing of CCCCCCCCCCCCCCCCP(=O)(O)OP(=O)(O)OCC1OC(n2cnc3c(N)ncnc32)C(O)C1O (configuration not stated)
a: 20.9 µM (inactive)

q: Look up and report measured GI50 (NCI-H226) for the following compound: O=C1OC2c3ccccc3C(=O)C2(c2ccccc2)N1c1ccccc1 (configuration not stated)
a: > 200 µM (inactive)

q: Retrieve GI50 on NCI-H226; query N=C(N)N/N=C/c1c(-c2ccc([N+](=O)[O-])cc2)nc2sccn12
a: 1.75 µM (inactive)

q: Lab note: NCI-H226 assay, enter GI50 for CN1C(=O)c2ccccc2C(O)(c2ccccc2)C1(O)c1ccccc1 (configuration not stated) here
a: > 100 µM (inactive)

q: Specify GI50 for CCOC(=O)C(CCSC)(CCSC)C(=O)OCC , system NCI-H226.
a: > 100 µM (inactive)

q: Report its GI50 with NCI-H226 as the test system: CN/N=C(\C(=O)Nc1ccc(C(F)(F)F)cc1[N+](=O)[O-])C(c1cnc2ccc([N+](=O)[O-])cc2n1)[N+](=O)[O-] (configuration not stated)
a: 17.9 µM (inactive)

q: Find the measured GI50 of O=Cc1ccc2c(c1)CC1(C2)Cc2ccc3c(c2C1)CCC3 (configuration not stated) with NCI-H226 as test system.
a: 16.3 µM (inactive)

q: Would you please give the reported GI50 of Cc1ccc(NC(=O)COc2ccc(Cl)cc2)cc1Cl with NCI-H226?
a: 31 µM (inactive)

q: Given CC1OC(OCC2OC(Oc3ccc(C4CC(=O)c5c(O)cc(O)cc5O4)cc3O)C(O)C(O)C2O)C(O)C(O)C1O (configuration not stated) , report its GI50 on NCI-H226.
a: > 100 µM (inactive)

q: Find the measured GI50 of O=C1NC(c2ccc(O)cc2)C2CCC1C2 (configuration not stated) with NCI-H226 as test system.
a: > 100 µM (inactive)

q: Lab note: NCI-H226 assay, enter GI50 for CCC(=O)C(C)C(=O)C(=O)C(=O)OC (configuration not stated) here
a: > 100 µM (inactive)

q: Recall the reported GI50 of CCOC(=O)/C=C(\C)c1ccc(Cl)cc1 when tested on NCI-H226.
a: 54.8 µM (inactive)

q: // fetch GI50 for CCNC1=C(NC(=O)CC)C(=O)c2ccccc2C1=O ; system: NCI-H226
a: > 100 µM (inactive)

q: Find the measured GI50 of CC(=O)NC(CCCCNC(=O)NCCCl)C(=O)NCc1ccccc1 (configuration not stated) with NCI-H226 as test system.
a: > 100 µM (inactive)

q: Report measured GI50 on NCI-H226; entry: CC1OC(n2cnc3c(N)nc(Cl)nc32)C(C)(O)C1O (configuration not stated)
a: > 25 µM (inactive)

q: System NCI-H226. Read-out GI50. Item O=C(Cl)C1=C(c2ccccc2)C1c1ccccc1 (configuration not stated) . Report value.
a: > 100 µM (inactive)

q: Consider the compound COC1=C2CC(C)CC(OC)C(O)C(C)/C=C(\C)C(OC(N)=O)C(OC)/C=C\C=C(/C)C(=O)NC(=C(/C=N/C(C)(C)C)C1=O)C2=O (configuration not stated) tested on NCI-H226; state its GI50.
a: 1.75 µM (inactive)

q: Fill in GI50 for COc1nc2c(nc(N)n2C2OCC(O)C(O)C2O)c(=O)n1C (configuration not stated) tested with NCI-H226.
a: > 100 µM (inactive)

q: Lab note: record GI50 of COc1cc2c(cc1OC)-c1cc3ccccc3c[n+]1CC2 tested on NCI-H226.
a: > 100 µM (inactive)
